Catalogue of peptide exchange yield values
- System Name: HLA-A*24 (human)
- Protocol Description: UV-exchange b2m ELISA
Test Readout: peptide exchange yield

binder=TYIKPISKL test_readout="peptide exchange yield" reported="50 to 75%"
binder=VYRDETGELF test_readout="peptide exchange yield" reported="50 to 75%"
binder=TYSVSFPMF test_readout="peptide exchange yield" reported="> 75%"
binder=HYSQELSLLYL test_readout="peptide exchange yield" reported="> 75%"
binder=IFIEVFSHF test_readout="peptide exchange yield" reported="50 to 75%"
binder=LYIDRPLPYL test_readout="peptide exchange yield" reported="50 to 75%"
binder=WYVNGVNYF test_readout="peptide exchange yield" reported="20 to 49%"
binder=EYQENFLSF test_readout="peptide exchange yield" reported="50 to 75%"
binder=RYAEEVGIF test_readout="peptide exchange yield" reported="50 to 75%"
binder=VYQGHTALL test_readout="peptide exchange yield" reported="> 75%"
binder=EYINQGDLHEF test_readout="peptide exchange yield" reported="50 to 75%"
binder=VYTLDIPVL test_readout="peptide exchange yield" reported="> 75%"
binder=VFQNFPLLF test_readout="peptide exchange yield" reported="> 75%"
binder=RYSTGLAGNLL test_readout="peptide exchange yield" reported="50 to 75%"
binder=KYMVYPQTF test_readout="peptide exchange yield" reported="> 75%"
binder=VFTSTARAF test_readout="peptide exchange yield" reported="50 to 75%"
binder=QYSSVFKSL test_readout="peptide exchange yield" reported="> 75%"
binder=QYLENLEKL test_readout="peptide exchange yield" reported="50 to 75%"
binder=TYLRDQHFL test_readout="peptide exchange yield" reported="> 75%"
binder=LYNKGFIYL test_readout="peptide exchange yield" reported="> 75%"
binder=NYINRILKL test_readout="peptide exchange yield" reported="> 75%"
binder=VYGFQWRHF test_readout="peptide exchange yield" reported="> 75%"
